B1: RIT1 (parent)
chain: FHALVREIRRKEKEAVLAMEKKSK

# Variants of: B1
# assay.protocol: protein stability index of a GFP-peptide fusion (GPS, HEK-293T) (PSI 1-6); higher = more stable;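 further: lentivirally expressed fusions sorted by FACS into six bins by GFP to DsRed ratio, PSI derived from sequencing read proportions per bin multiplied by bin number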
# condition.notes: c terminus: a fixed tail appended
Label MET when protein stability index is at or above 2; anything below gets NOT MET.

# variant.descriptor, answer.label
data = [
    ("R9P", "MET"),
    ("V16R", "MET"),
    ("K22C", "NOT MET"),
]

Is protein stability index at least 2? Consider E7I
MET

Determine whether this variant has protein stability index no lower than 2: K21H
MET

// inclusive: protein stability index at least 2? input: E14Q
NOT MET

I'd appreciate it if you could say whether L4V has protein stability index at least equal to 2.
MET

Exam item: decide whether the reported protein stability index for F1R is at least 2.
MET

Hi team, for E20N , is the recorded protein stability index at or above 2?
NOT MET

Check if protein stability index >= 2 (inclusive). Item: V16M
NOT MET

Hi team, for K21V , is the recorded protein stability index at or above 2?
MET

Taken from the supplement of paper PMC10567573.
